- ASSAY_NOTES: Half life in monkey at intravenous dose of 25 umol/kg
- Format: ADME, organism-based
- MEASUREMENT_PARAMETERS: simiiformes, in vivo

>  <CHEMICAL_STRING>
Cc1onc(NS(=O)(=O)c2ccccc2-c2ccc(-c3ncco3)cc2N(C)C(=O)CC(C)(C)C)c1C

>  <SCALE_UNIT>
h

>  <half-life>
14

$$$$

====

- ASSAY_NOTES: T max value at oral dose of 25 umol/kg in monkey
- Format: ADME, organism-based
- MEASUREMENT_PARAMETERS: simiiformes, in vivo

>  <CHEMICAL_STRING>
Cc1onc(NS(=O)(=O)c2ccccc2-c2ccc(-c3ncco3)cc2N(C)C(=O)CC(C)(C)C)c1C

>  <Tmax [h]>
1.2

$$$$

The measurements presented in this section are drawn from ChEMBL document CHEMBL1145011.
